Overview of reported pKi across a group of compounds:
subject.of.test: Norepinephrine transporter (Rattus norvegicus)
Sequence (Q9WTR4 whole entry): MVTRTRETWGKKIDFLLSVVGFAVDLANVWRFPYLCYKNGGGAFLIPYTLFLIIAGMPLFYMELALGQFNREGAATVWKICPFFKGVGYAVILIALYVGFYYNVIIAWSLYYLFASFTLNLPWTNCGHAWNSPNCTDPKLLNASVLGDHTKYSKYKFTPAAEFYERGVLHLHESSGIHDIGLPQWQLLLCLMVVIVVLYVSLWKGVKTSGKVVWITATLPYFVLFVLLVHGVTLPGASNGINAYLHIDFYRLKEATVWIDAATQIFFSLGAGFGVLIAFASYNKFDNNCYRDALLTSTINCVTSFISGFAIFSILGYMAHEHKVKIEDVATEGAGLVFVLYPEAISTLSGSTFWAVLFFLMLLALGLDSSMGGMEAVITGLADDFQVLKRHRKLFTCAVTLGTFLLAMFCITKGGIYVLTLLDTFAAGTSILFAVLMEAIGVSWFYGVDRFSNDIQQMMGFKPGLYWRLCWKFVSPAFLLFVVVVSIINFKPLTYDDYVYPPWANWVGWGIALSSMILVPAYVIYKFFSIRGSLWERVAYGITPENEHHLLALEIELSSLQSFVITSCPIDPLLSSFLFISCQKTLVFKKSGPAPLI
assay.details: Ability to inhibit high affinity uptake of norepinephrine transporter into the nerve endings of rat synaptosomes using [3H]NE as a radioligand
Format: subcellular, Brain
pKi: −log10 of the molar value.
parameter: pKi

- CN1CC[C@H](c2ccc(Cl)cc2)[C@@H](C(=O)NCCCCNC(=O)[C@H]2CN(C)CC[C@@H]2c2ccc(Cl)cc2)C1: 6.98
- CN1CC[C@H](c2ccc(Cl)cc2)[C@@H](C(=O)NCCCNC(=O)[C@H]2CN(C)CC[C@@H]2c2ccc(Cl)cc2)C1: 6.84
- CN1CC[C@H](c2ccc(Cl)cc2)[C@@H](C(=O)NCCCCCCNC(=O)[C@H]2CN(C)CC[C@@H]2c2ccc(Cl)cc2)C1: 6.24
- CN1CC[C@H](c2ccc(Cl)cc2)[C@@H](C(=O)NCCCCCNC(=O)[C@H]2CN(C)CC[C@@H]2c2ccc(Cl)cc2)C1: 6.80
- CN1CC[C@@H](c2ccc(Cl)cc2)[C@H](C(=O)NCCCNC(=O)[C@@H]2CN(C)CC[C@H]2c2ccc(Cl)cc2)C1: 6.43
- CN1CC[C@H](c2ccc(Cl)cc2)[C@@H](C(=O)OCCCCCOC(=O)[C@H]2CN(C)CC[C@@H]2c2ccc(Cl)cc2)C1: 6.74
- CN1CC[C@H](c2ccc(Cl)cc2)[C@@H](C(=O)NCCCCCNC(=O)c2ccc(Cl)cc2)C1: 6.26
- CN1CC[C@H](c2ccc(Cl)cc2)[C@@H](C(=O)NCCCCCCCCNC(=O)[C@H]2CN(C)CC[C@@H]2c2ccc(Cl)cc2)C1: 5.70

The reported measurements were obtained from ChEMBL document CHEMBL1134476.
